Assignment: determine reported Trimeric HA Binding: RLU for the given binders.
- Tested target: recombinant homotrimeric HA A/Solomon Islands/3/06 H1N1 (Influenza A virus A/Solomon Islands/3/2006(H1N1))
- Measurement description: protein microarray, purified IgG, trimeric HA
- Condition parameters: remark: other sources report otherwise

In the examples that follow, each entry is paired with its recorded Trimeric HA Binding: RLU.
Binder	Result
TCN-539 (5056_A08) (antibody, V domains shown) VH: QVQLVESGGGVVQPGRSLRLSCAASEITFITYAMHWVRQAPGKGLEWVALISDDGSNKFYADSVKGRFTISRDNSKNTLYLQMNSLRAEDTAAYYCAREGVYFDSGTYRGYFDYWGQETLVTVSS VL: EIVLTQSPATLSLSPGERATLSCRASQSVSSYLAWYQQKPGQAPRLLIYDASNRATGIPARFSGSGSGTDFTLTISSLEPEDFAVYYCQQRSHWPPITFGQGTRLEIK	1060 RLU
TCN-544 (5082_A19) (antibody, V domains shown) VH: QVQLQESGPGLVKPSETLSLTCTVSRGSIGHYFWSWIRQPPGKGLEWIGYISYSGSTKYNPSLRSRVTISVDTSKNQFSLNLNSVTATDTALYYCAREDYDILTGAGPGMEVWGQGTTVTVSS VL: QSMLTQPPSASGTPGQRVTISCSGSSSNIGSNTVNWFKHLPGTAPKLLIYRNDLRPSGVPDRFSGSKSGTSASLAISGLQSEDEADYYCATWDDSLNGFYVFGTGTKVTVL	1010 RLU
TCN-554 (5277_M05) (antibody, V domains shown) VH: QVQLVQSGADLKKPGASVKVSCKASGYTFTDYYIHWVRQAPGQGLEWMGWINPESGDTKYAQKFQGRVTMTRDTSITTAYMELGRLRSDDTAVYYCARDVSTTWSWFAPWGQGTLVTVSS VL: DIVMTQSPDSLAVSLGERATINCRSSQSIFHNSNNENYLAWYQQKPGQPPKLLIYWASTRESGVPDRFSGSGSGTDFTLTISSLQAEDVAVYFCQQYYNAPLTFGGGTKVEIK	1540 RLU

// input: 2 binders below; output: Trimeric HA Binding: RLU for each
1. TCN-543 (5081_G23) (antibody, V domains shown) VH: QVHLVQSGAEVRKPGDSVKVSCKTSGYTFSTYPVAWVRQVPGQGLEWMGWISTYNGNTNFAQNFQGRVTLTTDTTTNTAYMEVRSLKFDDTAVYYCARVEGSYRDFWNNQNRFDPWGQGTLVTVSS VL: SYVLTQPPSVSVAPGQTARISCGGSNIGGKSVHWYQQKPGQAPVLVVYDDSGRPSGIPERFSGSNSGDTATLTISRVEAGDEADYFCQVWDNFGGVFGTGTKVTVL
2. TCN-522 (3212_I12) (antibody, V domains shown) VH: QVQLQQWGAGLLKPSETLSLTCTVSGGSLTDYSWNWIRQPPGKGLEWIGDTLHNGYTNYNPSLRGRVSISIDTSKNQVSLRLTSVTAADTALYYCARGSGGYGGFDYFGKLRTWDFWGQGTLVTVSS VL: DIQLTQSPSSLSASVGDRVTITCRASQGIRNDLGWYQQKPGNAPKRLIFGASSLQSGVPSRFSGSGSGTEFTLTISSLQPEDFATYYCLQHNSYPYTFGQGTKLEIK

Outgoing:
18300 RLU
19100 RLU
